# tested.target: protein-protein interaction between Kras and SOS1 (biotin-tagged human Kras loaded with GDP, His-tagged human SOS1) (Homo sapiens (Human), UniProt P01116, G12D)
# experimental.protocol: Protein-protein interaction inhibition between Kras and SOS1 (KrasG12D-SOS PPI) using AlphaScreen
# Format: biochemical
# condition.parameters: AlphaScreen; biotin-tagged human Kras loaded with GDP, His-tagged human SOS1; read-out: KRAS G12D-SOS PPI IC50
pIC50: −log10 of the molar value. Numbered stars: 1 amine (or outer) side, 2 acyl side, 3 side chain; on linkers, the order of the positions; unused ones are H or OH. Bridge positions count the residues as written; N and C are the ends. Square brackets hold non-standard residues; d marks the D form. Peptide text beside a SMILES is read from it. * marks the point of attachment. hPhe(3-Cl-4-CF3) = N[C@@H](CCc1ccc(C(F)(F)F)c(Cl)c1)C(=O)O; NMePhe(4-CF3) = CN[C@@H](Cc1ccc(C(F)(F)F)cc1)C(=O)O; hPhe(4-CF3) = N[C@@H](CCc1ccc(C(F)(F)F)cc1)C(=O)O; NMePhe(4-Cl) = CN[C@@H](Cc1ccc(Cl)cc1)C(=O)O; NMeMet(O2) = CN[C@@H](CCS(C)(=O)=O)C(=O)O; NMedβ3hAla = C[C@H](CC(=O)[*:2])N(C)[*:1]; NMeGly(cPent) = CN[C@H](C(=O)O)C1CCCC1; Phe(3-I) = N[C@@H](Cc1cccc(I)c1)C(=O)O; NMe3Pal = CN[C@@H](Cc1cccnc1)C(=O)O; NMeCha = CN[C@@H](CC1CCCCC1)C(=O)O; NMeAhp(2) = CCCCC[C@H](NC)C(=O)O; NMeChg = CN[C@H](C(=O)O)C1CCCCC1; NMeF = CN[C@@H](Cc1ccccc1)C(=O)O; NMeE = CN[C@@H](CCC(=O)O)C(=O)O; NMeD = CN[C@@H](CC(=O)O)C(=O)O; dNMeD = CN[C@H](CC(=O)O)C(=O)O; NMeL = CN[C@@H](CC(C)C)C(=O)O; NMeV = CN[C@H](C(=O)O)C(C)C; Morpholide = C1CN(*)CCO1; NMeA = CN[C@@H](C)C(=O)O; NMeAib = CNC(C)(C)C(=O)O; Piperidide = C1CCN(*)CC1; Pra = C#CC[C@H](N)C(=O)O; Pyrrolidide = C1CCN(*)C1; Ac5c = NC1(C(=O)O)CCCC1; Aze = O=C(O)[C@@H]1CCN1; Sar = CNCC(=O)O
pIC50: recorded values

compound	pIC50
CC[C@H](C)[C@@H]1NC(=O)[C@H](CC(C)C)N(C)C(=O)C[C@H](C(=O)N2CCCC2)N(C)C(=O)[C@H](C2CCCC2)N(C)C(=O)C2(CCCC2)NC(=O)[C@@H]2CCCN2C(=O)[C@H](CCc2ccc(C(F)(F)F)c(Cl)c2)NC(=O)CN(C)C(=O)[C@H](CC2CCCCC2)N(C)C(=O)[C@@H]2CCN2C(=O)[C@H](C)N(C)C1=O [Compound 1868] ([NMeL]I[NMeA][Aze][NMeCha][Sar][hPhe(3-Cl-4-CF3)]P[Ac5c][NMeGly(cPent)][dNMeD]-Pyrrolidide; lactam N-11)	7.00
CC[C@H](C)[C@@H]1NC(=O)[C@H](CC(C)C)N(C)C(=O)C[C@@H](C(=O)N2CCOCC2)NC(=O)[C@H](C(C)C)N(C)C(=O)C2(CCCC2)NC(=O)[C@@H]2CCCN2C(=O)[C@H](CCc2ccc(C(F)(F)F)c(Cl)c2)NC(=O)CN(C)C(=O)[C@H](CC2CCCCC2)N(C)C(=O)[C@@H]2CCN2C(=O)[C@H](C)N(C)C1=O [Compound 1200] ([NMeL]I[NMeA][Aze][NMeCha][Sar][hPhe(3-Cl-4-CF3)]P[Ac5c][NMeV]D-Morpholide; lactam N-11)	7.35
CC[C@H](C)[C@@H]1NC(=O)[C@H](CC(C)C)N(C)C(=O)C[C@@H](C(=O)N2CCCCC2)N(C)C(=O)[C@H](C(C)C)N(C)C(=O)C2(CCCC2)NC(=O)[C@@H]2CCCN2C(=O)[C@H](CCc2ccc(C(F)(F)F)c(Cl)c2)NC(=O)CN(C)C(=O)[C@H](CC2CCCCC2)N(C)C(=O)[C@@H]2CCN2C(=O)[C@H](Cc2ccccc2)N(C)C1=O [Compound 1561] ([NMeL]I[NMeF][Aze][NMeCha][Sar][hPhe(3-Cl-4-CF3)]P[Ac5c][NMeV][NMeD]-Piperidide; lactam N-11)	7.48
CCCCC[C@H]1C(=O)N(C)[C@H](C(=O)N2CCCCC2)CC(=O)N(C)[C@@H](CC(C)C)C(=O)N[C@@H]([C@@H](C)CC)C(=O)N(C)[C@@H](C)C(=O)N2CC[C@H]2C(=O)N(C)[C@@H](CC2CCCCC2)C(=O)N(C)CC(=O)N[C@@H](CCc2ccc(C(F)(F)F)c(Cl)c2)C(=O)N2CCC[C@H]2C(=O)NC2(CCCC2)C(=O)N1C [Compound 1707] ([NMeL]I[NMeA][Aze][NMeCha][Sar][hPhe(3-Cl-4-CF3)]P[Ac5c][NMeAhp(2)][NMeD]-Piperidide; lactam N-11)	6.74
C#CC[C@@H]1NC(=O)[C@H](Cc2cccc(I)c2)NC(=O)CN(C)C(=O)[C@H](Cc2ccc(C(F)(F)F)cc2)N(C)C(=O)CN(C)C(=O)CN(C)C(=O)[C@H]([C@@H](C)CC)NC(=O)[C@H](CC(C)C)N(C)C(=O)C[C@@H](C)N(C)C(=O)[C@H](CC(C)C)NC(=O)C(C)(C)N(C)C1=O [Compound 1406] (cyclo(I[Sar][Sar][NMePhe(4-CF3)][Sar][Phe(3-I)][Pra][NMeAib]L[NMedβ3hAla][NMeL]))	6.80
CC[C@H](C)[C@@H]1NC(=O)[C@H](C(C)C)N(C)C(=O)C[C@@H](C(=O)N2CCCC2)NC(=O)[C@H](CC(C)C)N(C)C(=O)C2(CCCC2)NC(=O)[C@H](CC(C)C)N(C)C(=O)[C@H](CCc2ccc(C(F)(F)F)cc2)NC(=O)CN(C)C(=O)[C@H](Cc2ccc(Cl)cc2)N(C)C(=O)CN(C)C(=O)CN(C)C1=O [Compound 769] ([NMeV]I[Sar][Sar][NMePhe(4-Cl)][Sar][hPhe(4-CF3)][NMeL][Ac5c][NMeL]D-Pyrrolidide; lactam N-11)	7.28
CC[C@H](C)[C@@H]1NC(=O)[C@H](CC(C)C)N(C)C(=O)C[C@@H](C(=O)N2CCOCC2)N(C)C(=O)[C@H](C2CCCC2)N(C)C(=O)C2(CCCC2)NC(=O)[C@H](CCC(=O)N2CCOCC2)N(C)C(=O)[C@H](CCc2ccc(C(F)(F)F)c(Cl)c2)NC(=O)CN(C)C(=O)[C@H](CC2CCCCC2)N(C)C(=O)[C@@H]2CCN2C(=O)[C@H](C)N(C)C1=O [Compound 2107] ([NMeL]I[NMeA][Aze][NMeCha][Sar][hPhe(3-Cl-4-CF3)][NMeE](Morpholide)[Ac5c][NMeGly(cPent)][NMeD]-Morpholide; lactam N-11)	8.32
CC[C@H](C)[C@@H]1NC(=O)[C@H](CCS(C)(=O)=O)N(C)C(=O)C[C@@H](C(=O)N2CCCCC2)N(C)C(=O)[C@H](C(C)C)N(C)C(=O)C2(CCCC2)NC(=O)[C@@H]2CCCN2C(=O)[C@H](CCc2ccc(C(F)(F)F)c(Cl)c2)NC(=O)CN(C)C(=O)[C@H](CC2CCCCC2)N(C)C(=O)[C@@H]2CCN2C(=O)[C@H](C)N(C)C1=O [Compound 419] ([NMeMet(O2)]I[NMeA][Aze][NMeCha][Sar][hPhe(3-Cl-4-CF3)]P[Ac5c][NMeV][NMeD]-Piperidide; lactam N-11)	8.62
CC[C@H](C)[C@@H]1NC(=O)[C@H](CC(C)C)N(C)C(=O)C[C@@H](C(=O)N2CCCC2)N(C)C(=O)[C@H](C2CCCCC2)N(C)C(=O)C2(CCCC2)NC(=O)[C@H](Cc2cccnc2)N(C)C(=O)[C@H](CCc2ccc(C(F)(F)F)c(Cl)c2)NC(=O)CN(C)C(=O)[C@H](CC2CCCCC2)N(C)C(=O)CN(C)C(=O)CN(C)C1=O [Compound 1693] ([NMeL]I[Sar][Sar][NMeCha][Sar][hPhe(3-Cl-4-CF3)][NMe3Pal][Ac5c][NMeChg][NMeD]-Pyrrolidide; lactam N-11)	8.77

* * *

# tested.target: protein-protein interaction between Kras and SOS1 (biotin-tagged human Kras loaded with GDP, His-tagged human SOS1) (Homo sapiens (Human), UniProt P01116, G12D)
# experimental.protocol: Protein-protein interaction inhibition between Kras and SOS1 (KrasG12D-SOS PPI) using AlphaScreen;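 also: kras produced in E. coli, Ni-coupled donor beads and streptavidin acceptor beads, excitation 680 nm with emission detected at 520–620 nm via singlet oxygen transfer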
# Type: biochemical
# condition.parameters: AlphaScreen; biotin-tagged human Kras loaded with GDP, His-tagged human SOS1; read-out: KRAS G12D-SOS PPI IC50
pIC50: −log10 of the molar value. Numbered stars: 1 amine (or outer) side, 2 acyl side, 3 side chain; on linkers, the order of the positions; unused ones are H or OH. Bridge positions count the residues as written; N and C are the ends. Square brackets hold non-standard residues; d marks the D form. Peptide text beside a SMILES is read from it. * marks the point of attachment. hPhe(3-Cl-4-CF3) = N[C@@H](CCc1ccc(C(F)(F)F)c(Cl)c1)C(=O)O; X69 = CN(C)C(=O)COCCN(CC(=O)[*:2])[*:1]; NMeCha = CN[C@@H](CC1CCCCC1)C(=O)O; NMeChg = CN[C@H](C(=O)O)C1CCCCC1; NMeD = CN[C@@H](CC(=O)O)C(=O)O; NMeL = CN[C@@H](CC(C)C)C(=O)O; Piperidide = C1CCN(*)CC1; Ac5c = NC1(C(=O)O)CCCC1; Sar = CNCC(=O)O

compound	pIC50
CC[C@H](C)[C@@H]1NC(=O)[C@H](CC(C)C)N(C)C(=O)C[C@@H](C(=O)N2CCCCC2)N(C)C(=O)[C@H](C2CCCCC2)N(C)C(=O)C2(CCCC2)NC(=O)CN(CCOCC(=O)N(C)C)C(=O)[C@H](CCc2ccc(C(F)(F)F)c(Cl)c2)NC(=O)CN(C)C(=O)[C@H](CC2CCCCC2)N(C)C(=O)CN(C)C(=O)CN(C)C1=O [Compound 2038] ([NMeL]I[Sar][Sar][NMeCha][Sar][hPhe(3-Cl-4-CF3)][X69][Ac5c][NMeChg][NMeD]-Piperidide; lactam N-11)	8.08
CC[C@H](C)[C@@H]1NC(=O)[C@H](CC(C)C)N(C)C(=O)C[C@@H](C(=O)N2CCCCC2)N(C)C(=O)[C@H](C2CCCCC2)N(C)C(=O)C2(CCCC2)NC(=O)[C@@H]2CCCN2C(=O)[C@H](CCc2ccc(C(F)(F)F)c(Cl)c2)NC(=O)CN(C)C(=O)[C@H](CC2CCCCC2)N(C)C(=O)CN(C)C(=O)CN(C)C1=O [Compound 558] ([NMeL]I[Sar][Sar][NMeCha][Sar][hPhe(3-Cl-4-CF3)]P[Ac5c][NMeChg][NMeD]-Piperidide; lactam N-11)	8.74
